FYI, the data here is from paper PMC4278837.

biological target: huPA-H99Y (Homo sapiens, UniProt P00749, H272Y); construct: To ensure that the uPAs purified from the conditioned media were completely in the two-chain form, they were treated with plasmin; hexa-His (C); made in house; host or cells: HEK293 6E suspension cells; assay: Surface plasmon resonance analysis of peptide binding to huPA-H99Y; conditions: SPR, 25°C, pH 7.4
Bridge positions count the residues as written; N and C are the ends. Square brackets hold non-standard residues; d marks the D form. Peptide text beside a SMILES is read from it. Ala(1-amidino-4-piperidyl) = N=C(N)N1CCC(C[C@H](N)C(=O)O)CC1; Phe(4-guanidino) = N=C(N)Nc1ccc(C[C@H](N)C(=O)O)cc1
property measured: k off, huPA-H99Y

State recorded k off, huPA-H99Y for all listed molecules.
1. CC(=O)N[C@H]1CSSC[C@@H](C(N)=O)NC(=O)[C@H](C)NC(=O)[C@H](CC(C)C)NC(=O)[C@H](Cc2ccc(O)cc2)NC(=O)[C@H](CC2CCN(C(=N)N)CC2)NC(=O)[C@H](CO)NC(=O)[C@H](Cc2ccc(O)cc2)NC(=O)[C@H](C)NC(=O)[C@@H]2CCCN2C1=O [Mupain-1-16 D9A] (Ac-CPAYS[Ala(1-amidino-4-piperidyl)]YLAC-NH2; disulfide 1-10)
2. CC(=O)N[C@H]1CSSC[C@@H](C(N)=O)NC(=O)[C@H](C)NC(=O)[C@H](CC(C)C)NC(=O)[C@H](Cc2ccc(O)cc2)NC(=O)[C@H](Cc2ccc(NC(=N)N)cc2)NC(=O)[C@H](CO)NC(=O)[C@H](Cc2ccc(O)cc2)NC(=O)[C@H](C)NC(=O)[C@@H]2CCCN2C1=O [Mupain-1-12 D9A, CPAYS[4-guanidino-phenyl-alanine]YLAC] (Ac-CPAYS[Phe(4-guanidino)]YLAC-NH2; disulfide 1-10; N-terminus assumed)
3. CC(=O)N[C@H]1CSSC[C@@H](C(N)=O)NC(=O)[C@H](CC(=O)O)NC(=O)[C@H](CC(C)C)NC(=O)[C@H](Cc2ccc(O)cc2)NC(=O)[C@H](CCCNC(=N)N)NC(=O)[C@H](CO)NC(=O)[C@H](Cc2ccc(O)cc2)NC(=O)[C@H](C)NC(=O)[C@@H]2CCCN2C1=O [Mupain-1, CPAYSRYLDC] (Ac-CPAYSRYLDC-NH2; disulfide 1-10)
4. CC(=O)N[C@H]1CSSC[C@@H](C(N)=O)NC(=O)[C@H](CC(=O)O)NC(=O)[C@H](CC(C)C)NC(=O)[C@H](Cc2ccc(O)cc2)NC(=O)[C@H](Cc2ccc(NC(=N)N)cc2)NC(=O)[C@H](CO)NC(=O)[C@H](Cc2ccc(O)cc2)NC(=O)[C@H](C)NC(=O)[C@@H]2CCCN2C1=O [Mupain-1-12, CPAYS[4-guanidino-phenyl-alanine]YLDC] (Ac-CPAYS[Phe(4-guanidino)]YLDC-NH2; disulfide 1-10)
5. CC(=O)N[C@H]1CSSC[C@@H](C(N)=O)NC(=O)[C@H](C)NC(=O)[C@H](CC(C)C)NC(=O)[C@H](Cc2ccc(O)cc2)NC(=O)[C@H](CCCNC(=N)N)NC(=O)[C@H](CO)NC(=O)[C@H](Cc2ccc(O)cc2)NC(=O)[C@H](C)NC(=O)[C@@H]2CCCN2C1=O [Mupain-1 D9A, CPAYSRYLAC] (Ac-CPAYSRYLAC-NH2; disulfide 1-10)
6. CC(=O)N[C@H]1CSSC[C@@H](C(N)=O)NC(=O)[C@H](CC(=O)O)NC(=O)[C@H](CC(C)C)NC(=O)[C@H](Cc2ccc(O)cc2)NC(=O)[C@H](CC2CCN(C(=N)N)CC2)NC(=O)[C@H](CO)NC(=O)[C@H](Cc2ccc(O)cc2)NC(=O)[C@H](C)NC(=O)[C@@H]2CCCN2C1=O [Mupain-1-16] (Ac-CPAYS[Ala(1-amidino-4-piperidyl)]YLDC-NH2; disulfide 1-10)

["3.33±0.13 (4) s^-1, ×10^2", "7.94±0.39 (3) s^-1, ×10^2", "80.2±7.6 (4) s^-1, ×10^2", "24.6±1.2 (4) s^-1, ×10^2", "36.6±0.21 (3) s^-1, ×10^2", "8.93±0.46 (4) s^-1, ×10^2"]
